System: VDR:RXRa (NR concentration 270 nM, RXRa partner concentration 90 nM)
Assay method text: PBM binding z-score (relative to random genomic background probes); higher = stronger binding; sequences stand for … in GC…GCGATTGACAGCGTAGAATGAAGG
Class 1 (yes): PBM binding z-score at least 3. Class 0 (no): PBM binding z-score below 3.

# bool: PBM binding z-score of TAGCCTAGGTCATGGGCCAGTGTACCACGCGAAC >= 3
0 (no)

# bool: PBM binding z-score of CCTACTGGGCCTAAGGTCATTGATTCCAATGCTC >= 3
1 (yes)

# bool: PBM binding z-score of CCTTACGGGTCACTGACAGGTTATAGCGTTTGGA >= 3
1 (yes)

Attention now turns to another entry.
# bool: PBM binding z-score of CGTCCAAGGTTAAGGTCAGTGAAAGAGACTCGAA >= 3
0 (no)

* * *

Tested on: PPARa:RXRa (NR concentration 270 nM, RXRa partner concentration 90 nM)
Assay method text: PBM binding z-score (relative to random genomic background probes); higher = stronger binding; sequences stand for … in GC…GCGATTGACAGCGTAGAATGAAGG
Measured endpoint: PBM binding z-score
Answer with a bare number; do not write a unit.

Answered cases to consult:
Reported PBM binding z-score, sequence AATACAGGGTGACTAGGCCAGAGTAGGTACGAAT : ____
1.7

Reported PBM binding z-score, sequence TTGCCAAGGTGAAAGGTCGTTGATGCACGCCTTG : ____
5.16

Reported PBM binding z-score, sequence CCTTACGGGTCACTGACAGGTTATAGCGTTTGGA : ____
5.13

More entries:
Reported PBM binding z-score, sequence AGAATGAGGTCATACGTAGATCAGGGAAGAAAGT : ____
6.29

Reported PBM binding z-score, sequence ATCGAAAGGTCGACGCGGTGAGTATACACCGTTT : ____
3.97

Reported PBM binding z-score, sequence TAGCCTAGGTCATTCAGGGGCCAGCATAGAAAGC : ____
3.89

* * *

Test system: RARg homodimer (NR concentration 270 nM)
Assay method text: PBM binding z-score (relative to random genomic background probes); higher = stronger binding; sequences stand for … in GC…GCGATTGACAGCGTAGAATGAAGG
Here the recorded PBM binding z-score is given for each entry.
Answer with a bare number; do not write a unit.

Reported PBM binding z-score, sequence CGTCAAAGATCAAGGTAACGTAACAGAAAGCAGC : ____
0.612

Reported PBM binding z-score, sequence AGAATGAGGTTACTAAAGATCAGGGAAACGCTTG : ____
1.25

Reported PBM binding z-score, sequence CGTACAAGGTCAAAGGTCAGTGAAGAGATGACGG : ____
8.28

More entries:
Reported PBM binding z-score, sequence CCTTACGGGTCCCTCCAGGTTATAGCATCGGAGT : ____
0.0141

* * *

System: PPARg:RXRa 270nM:90nM, anti-RXR (NR concentration 270 nM, RXRa partner concentration 90 nM)
Assay method text: PBM binding z-score (relative to random genomic background probes); higher = stronger binding; sequences stand for … in GC…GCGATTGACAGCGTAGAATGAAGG
Measured endpoint: PBM binding z-score
Answer with a bare number; do not write a unit.

Answered cases to consult:
Reported PBM binding z-score, sequence AGTCAAAGTTCAGGACGACGTAACGTAAAGCACG : ____
4.5

Reported PBM binding z-score, sequence CAAACGAGGTCAAGGTCAAAGTCGGTTTGTGCCA : ____
7.98

Reported PBM binding z-score, sequence CCTTACGGGTCAAGGTTATAGCCCGGGTGGTACG : ____
4.86

More entries:
Reported PBM binding z-score, sequence CCAACTAGGTCAAAGGACAGTGAAAGGCGACGTA : ____
8.24

Reported PBM binding z-score, sequence TCTGCTAGGTCAACGTTGGTCAGCTAATCTGCTA : ____
3.4

Hello, the source for this data is the supplement of paper PMC6555819, in case you need it.
